test system: WI-38 cells; test: Wash-out (duration of action) experiment, PGE2 production in IL-1β-stimulated WI-38 cells; assay type: cell-based, human; conditions: 2 hours at 50 times the IC50, washed 5 times, IL-1β stimulation, 24 hours
recorded endpoint: PGE2 production (pg/mL)
Note: unit pg/mL is implicit; provide only the numeric part.

Input: # input compound: CCC=CCC=CCC=CCC=CCC=CCC=CCCC(=O)OCC(=O)C12OC(CCC)OC1CC1C3CCC4=CC(=O)C=CC4(C)C3C(O)CC12C (stereo not shown) [Docosahexaenoic acid ester of budesonide, docosahexaenoic acid ester of budesonide] ; wanted: its PGE2 production
Output: 2075

Input: Next: CCC=CCC=CCC=CCC=CCC=CCCCCCC(=O)OCC(=O)C12OC(CCC)OC1CC1C3CCC4=CC(=O)C=CC4(C)C3C(O)CC12C (stereo not shown)
Output: 200

Input: Next: CCCC1O[C@@H]2C[C@H]3[C@@H]4CCC5=CC(=O)C=C[C@]5(C)[C@H]4[C@@H](O)C[C@]3(C)[C@]2(C(=O)CO)O1 (stereo partly shown) [Budesonide, budesonide, reference compound]
Output: 2688

Input: Next: CCC=CCC=CCC=CCC=CCC=CCCCC(=O)OCC(=O)C12OC(CCC)OC1CC1C3CCC4=CC(=O)C=CC4(C)C3C(O)CC12C (stereo not shown)
Output: 806
